# SUBJECT OF TEST: T1, rat amylin receptor (calcitonin receptor co-expressed with receptor activity modifying protein, RAMP3) (rat, UniProt P32214 25-516; Q9JJ73 23-147)
# T1 sequence (looked up) 1: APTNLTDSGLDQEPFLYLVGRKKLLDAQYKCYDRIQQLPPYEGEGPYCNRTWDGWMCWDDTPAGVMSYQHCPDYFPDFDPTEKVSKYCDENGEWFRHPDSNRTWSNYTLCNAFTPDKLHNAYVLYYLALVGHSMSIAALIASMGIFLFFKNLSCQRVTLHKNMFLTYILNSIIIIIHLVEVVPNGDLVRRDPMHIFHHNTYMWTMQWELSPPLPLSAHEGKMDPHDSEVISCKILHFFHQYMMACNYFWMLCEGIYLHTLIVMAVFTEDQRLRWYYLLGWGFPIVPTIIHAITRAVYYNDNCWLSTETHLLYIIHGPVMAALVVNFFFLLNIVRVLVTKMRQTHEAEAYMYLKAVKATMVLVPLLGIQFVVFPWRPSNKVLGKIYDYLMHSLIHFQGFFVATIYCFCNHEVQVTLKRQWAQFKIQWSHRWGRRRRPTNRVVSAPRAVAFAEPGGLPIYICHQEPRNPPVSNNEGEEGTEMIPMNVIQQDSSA
# T1 sequence (looked up) 2: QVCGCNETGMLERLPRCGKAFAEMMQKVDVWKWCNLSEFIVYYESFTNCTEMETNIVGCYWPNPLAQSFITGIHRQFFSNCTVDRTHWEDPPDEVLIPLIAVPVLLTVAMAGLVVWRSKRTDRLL
# RUN DESCRIPTION: cell-based or functional assay
Numbered stars: 1 amine (or outer) side, 2 acyl side, 3 side chain; on linkers, the order of the positions; unused ones are H or OH. Bridge positions count the residues as written; N and C are the ends. Square brackets hold non-standard residues; d marks the D form. Side chains are listed from the residue outwards. Ends that are not written are not given here. * marks the point of attachment. C20 diacid = O=C(O)CCCCCCCCCCCCCCCCCCC(=O)*; C18 diacid = O=C(O)CCCCCCCCCCCCCCCCC(=O)*; γGlu = O=C(O)[C@H](CCC(=O)[*:2])N[*:1]; αMeF = C[C@](N)(Cc1ccccc1)C(=O)O; AEEA = NCCOCCOCC(=O)O
Listing of recorded EC50 (cAMP production) by entry.
Just the number please, in nM, no unit attached.

Some entries whose results are on file:
{"BINDER": "{C20 diacid-γGlu-AEEA-AEEA}-KCNTATCATQRLANFLVHSSNNFGPILPPTNVGSNTY-NH2 (disulfide 2-7) [Peptide 113 (SEQ ID NO: 113)]", "EC50 (cAMP production) (nM)": 0.0326}
{"BINDER": "K([γGlu-γGlu-C18 diacid])CNTATCATQRLANFLRHSSNN[αMeF]GPILPPTEVGSNTY-NH2 (disulfide 2-7) [Peptide 18 (SEQ ID NO: 18)]", "EC50 (cAMP production) (nM)": 0.0165}

Lookup: For the binder shown here, {C20 diacid-γGlu}-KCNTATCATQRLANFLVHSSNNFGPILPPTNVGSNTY-NH2 (disulfide 2-7) [Peptide 112 (SEQ ID NO: 112)] , give the reported EC50 (cAMP production).
Found: 0.016
